Quick list: RBNS R-value per entry.
# Test system: PyIESI-1 RRM domain (Plasmodium yoelii PY17X_0911200 aa 795-956, GST fusion)
# assay-overview: RBNS R-value (6-mer enrichment in protein-bound RNA vs input library) (ratio); higher = stronger binding preference
# condition-set: protein concentration: 1000 nM
In all, about 4,100 sequences were measured (“RBNS R-value (6-mer enrichment in protein-bound RNA vs input library)”: median about 0.96, highest 2% from about 2.4 on). The entries come from a sample that favours the highest values as a whole.
Respond numerically, and do not add a unit to the figure.

Prompt line: Item: GUGGCC Test system: PyIESI-1 RRM domain (Plasmodium yoelii PY17X_0911200 aa 795-956, GST fusion) Read-out: RBNS R-value Value: ?
Response line: 0.976

More entries:
Prompt line: Observed RBNS R-value on PyIESI-1 RRM domain (Plasmodium yoelii PY17X_0911200 aa 795-956, GST fusion) for CACGAU , please.
Response line: 1.95

Prompt line: And what about the sequence UCUGAA ?
Response line: 0.99

Prompt line: // next record GGGCCG
Response line: 0.999

* * *

# System: PyIESI-1 RRM domain (Plasmodium yoelii PY17X_0911200 aa 795-956, GST fusion)
# assay-overview: RBNS R-value (6-mer enrichment in protein-bound RNA vs input library) (ratio); higher = stronger binding preference; the methods of the paper give 50 / 100 / 500 nM protein instead
# condition-set: protein concentration: 1000 nM
The full ranking holds about 4,100 sequences; the median of “RBNS R-value (6-mer enrichment in protein-bound RNA vs input library)” is about 0.96, and the highest 2% start at about 2.4. For the sample, the highest values were picked, then their nearest neighbours and some sequences at random.
Kindly return met if reported RBNS R-value is no lower than 1; return not met if it is lower.

Worked examples follow.
Prompt line: RBNS R-value >= 1 for GAUGCA ?
Response line: met

Prompt line: Another: GUCAAU
Response line: not met

Prompt line: Please answer likewise for CAAUGA
Response line: met

Prompt line: Similarly, UAUACC ?
Response line: not met

Prompt line: Now consider GGAUAC .
Response line: not met

Prompt line: Input CCGGUG
Response line: met

Prompt line: Would you mind doing GGAUGC as well?
Response line: met

Prompt line: Next sequence: CGUCGU
Response line: not met

Prompt line: Try this sequence too: CGAUAA
Response line: met

Prompt line: Follow-up entry: AUUGAC
Response line: met

Further cases:
Prompt line: Reported RBNS R-value reaches at least 1 for UAUGCG ?
Response line: not met

Prompt line: Field entry: UUUGAU
Response line: met

Prompt line: Repeat for the following sequence: ACAUUG
Response line: met

Prompt line: Follow-up entry: CGAAUG
Response line: met

Prompt line: Try this sequence too: UUCGAU
Response line: met

Prompt line: How about AGAUCA ?
Response line: not met

Prompt line: // repeat for CUGAAC and report
Response line: met

Prompt line: Would you kindly repeat that for AUUCGG ?
Response line: met

Prompt line: Next record, please: UUGGUC
Response line: not met

Prompt line: Query UUAUGA next
Response line: met

Prompt line: Proceed to AUUUAU
Response line: not met

Prompt line: Input UUAGCC
Response line: not met

Prompt line: Param item: ACGAAC
Response line: not met

Prompt line: Try this sequence too: UUACGC
Response line: not met

Prompt line: And for ACUCUC ?
Response line: not met

Prompt line: Same read-out for UAUUAC ?
Response line: not met

Prompt line: Please answer likewise for CGAUGU
Response line: met

Prompt line: What do we get for AUAAAA ?
Response line: not met

Prompt line: Then what about the sequence AAUGCG ?
Response line: not met

Prompt line: Moving on to the next sequence: UUAUGC
Response line: not met

Prompt line: Thanks! And GGAUCC ?
Response line: not met

Prompt line: For CAUUAG then?
Response line: not met

Prompt line: Ok, now CAAUCG
Response line: not met

Prompt line: Same thing, different sequence: AGCCUG
Response line: met
